Recorded values, source PubChem BioAssay (NCATS).

# reported activation; entries follow
- Target Or Test System: Cellular tumor antigen p53 (Homo sapiens)
- Test Method Notes: Primary qHTS for small molecule compounds that upregulate eGFP-tagged delta133p53alpha (in N-terminal) cells. (AID 2060322);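 further: cells pre-induced with doxycycline then dosed without doxycycline; 0% = DMSO vehicle and 100% = reference activator; nearly all actives have a fitted effect of over 75% in size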
- Experimental Setup: NCI-H358 eGFP-delta133p53alpha fluorescence, 24 h; hits give high values
- Text: Assay Development and Screening Technology National Center for Advancing Translational Sciences (NCATS), National Institute of Health (NIH), Rockville, Maryland Cellular senescence (CS) is one of the hallmarks of aging and age-related diseases. […] Here we report the development and validation of a cell-based quantitative high throughput screening (qHTS) assay in 1,536-well format. […]
Results filed as inconclusive are left out.
Supply the numeric figure in %, leaving out any unit text.

The examples below pair each entry with its known result.
Compound	activation, %
C[C@]12CC[C@@H]3c4ccc(O)cc4CC[C@H]3[C@@H]1C[C@@H](O[C@@H]1O[C@H](C(=O)O)[C@@H](O)[C@H](O)[C@H]1O)[C@@H]2O	-6.33
O=C(O)CCc1cc2ccoc2cc1O[C@@H]1O[C@H](CO[C@@H]2OC[C@](O)(CO)[C@H]2O)[C@@H](O)[C@H](O)[C@H]1O	-11.5
COc1ccc(C(=O)NCc2ccc(OCCN(C)C)cc2)cc1OC	-28.8
C[C@@H]1O[C@@H](O[C@H]2[C@H](O[C@H]3CC[C@@]4(C)C(CC[C@]5(C)C4CC=C4C6CC(C)(C)CC[C@]6(C(=O)O[C@@H]6O[C@H](CO[C@@H]7O[C@H](CO)[C@@H](O[C@@H]8O[C@@H](C)[C@H](O)[C@@H](O)[C@H]8O)[C@H](O)[C@H]7O)[C@@H](O)[C@H](O)[C@H]6O)CC[C@]45C)[C@]3(C)CO)OC[C@H](O)[C@@H]2O)[C@H](O)[C@H](O)[C@H]1O (stereo not given in full)	3.82

# context switch: different compound, same activation
Q: Return reported activation. Input compound: CC(C)CCC1(O)C(=O)C(C)(C)C(O[C@@H]2O[C@H](CO)[C@@H](O)[C@H](O)[C@H]2O)C(C)(C)C1O (stereo not given in full)
A: 12.5

###

- Test Method Notes: BET inhibitor-based combinations targeting novel dependencies in MECOM-rearranged (r) AML: OCI-AML3 cell line (AID 2202232); further: nearly all actives have a fitted effect of over 35% in size
- Experimental Setup: CellTiter-Glo luminescence, 48 h; OCI-AML3 viability; series mostly up to 46 µM
Results filed as inconclusive are left out. Active and inactive are the calls of the source. Calls come from the whole dose curve; as a rule, active = well fitted inhibition curve with a large enough effect; inconclusive = small, poorly fitted or top-dose-only effect; inactive = no such curve, though single readings can be large or run the other way.
Please state which outcome applies, choosing from active, inactive

Recorded results for 3 compounds are shown here.
Smiles Code	Cat
Cc1cccc(Nc2nc(-c3ccncc3)cs2)c1	inactive
CC(C)[C@H](C(=O)Nc1ccc(C(=O)NO)cc1)c1ccccc1	active
c1ccc2c(CCNc3ccc(Nc4ccncc4)cc3)c[nH]c2c1	active

Q: Could you check what this test reported for C[C@H]1C[C@@H]2[C@H]([C@@H](O)C[C@@]3(C)[C@H]2CC[C@]3(O)C(=O)CO)[C@@]2(C)C=CC(=O)C=C12 ?
A: inactive

###

- Test Method Notes: BET inhibitor-based combinations targeting novel dependencies in MECOM-rearranged (r) AML: UCSD-AML1 cell line (AID 2202235);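 further: plate controls were DMSO vehicle wells for no effect and blank wells for full effect; nearly all actives have a fitted effect of over 40% in size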
- Experimental Setup: UCSD-AML1 AML cells viability, CellTiter-Glo, 48 h; series mostly up to 46 µM
Records with an inconclusive call do not appear. Activity calls are given as the source filed them. The call rests on the fitted dose curve; in most records, active means well fitted inhibition curve with a large enough effect; inconclusive means small, poorly fitted or top-dose-only effect; inactive means no such curve, though single readings can be large or run the other way.
Assign a class; possible classes are active, inactive

Molecule	Cat
C[C@@H]1CN(c2c(F)c(N)c3c(=O)c(C(=O)O)cn(C4CC4)c3c2F)C[C@H](C)N1	inactive

Next up:
Q: What classification did CC(=O)OC1C(C)OC(Oc2c(-c3ccc(O)cc3)oc3cc(O)cc(O)c3c2=O)C(O)C1OC(C)=O (stereo unspecified) end up with in this test?
A: inactive

###

- Target Or Test System: Cellular tumor antigen p53 (Homo sapiens) (UniProt P04637)
- Sequence (P04637 whole entry, looked up): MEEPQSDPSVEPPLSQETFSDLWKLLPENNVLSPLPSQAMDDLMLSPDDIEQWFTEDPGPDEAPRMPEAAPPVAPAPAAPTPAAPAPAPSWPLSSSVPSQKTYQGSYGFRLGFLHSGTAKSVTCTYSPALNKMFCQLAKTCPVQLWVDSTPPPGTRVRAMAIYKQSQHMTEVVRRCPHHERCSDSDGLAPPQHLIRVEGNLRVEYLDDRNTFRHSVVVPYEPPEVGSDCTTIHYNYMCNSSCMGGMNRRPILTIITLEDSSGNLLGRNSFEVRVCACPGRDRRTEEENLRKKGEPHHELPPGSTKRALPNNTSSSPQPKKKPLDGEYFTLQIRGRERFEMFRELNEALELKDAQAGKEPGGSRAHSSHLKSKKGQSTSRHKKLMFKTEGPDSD
- Test Method Notes: Primary qHTS for small molecule compounds that upregulate eGFP-tagged delta133p53alpha (in N-terminal) cells. (AID 2060322);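 further: cells pre-induced with doxycycline then dosed without doxycycline; 0% = DMSO vehicle and 100% = reference activator; nearly all actives have a fitted effect of over 75% in size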
- Experimental Setup: NCI-H358 eGFP-delta133p53alpha fluorescence, 24 h; hits give high values
Results filed as inconclusive are left out.
Measure Name: activation (%)
// units = %; emit number, no label

Examples with their reported activation follow.
Compound	Target Or Test System	Measured Number
C/C=C/C[C@@H](C)[C@@H](O)[C@H]1C(=O)N[C@@H](CC)C(=O)N(C)CC(=O)N(C)[C@@H](CC(C)C)C(=O)N[C@@H](C(C)C)C(=O)N(C)[C@@H](CC(C)C)C(=O)N[C@@H](C)C(=O)N[C@H](C)C(=O)N(C)[C@@H](CC(C)C)C(=O)N(C)[C@@H](CC(C)C)C(=O)N(C)[C@H](C(C)C)C(=O)N1C	Cellular tumor antigen p53 (Homo sapiens) (UniProt P04637)	11.5
O=C(NCc1ccccc1-c1ccccc1C(=O)NCCc1ccccn1)OCc1ccccc1	Cellular tumor antigen p53 (Homo sapiens) (UniProt P04637)	1
CC(=O)OC1C[C@]2(C)C(O)CC(C)=C[C@H](OC(=O)c3ccc(O)cc3)C2[C@]1(O)C(C)C (stereo partly drawn)	Cellular tumor antigen p53 (Homo sapiens) (UniProt P04637)	-20.6
CC(C)NCC(O)c1ccc2ccccc2c1 (stereo not drawn)	Cellular tumor antigen p53 (Homo sapiens) (UniProt P04637)	-2.82
Nc1ccc(-c2nc3ccc(-c4nc5ccc(N)cc5[nH]4)cc3[nH]2)cc1	Cellular tumor antigen p53 (Homo sapiens) (UniProt P04637)	-9.36
CC(C)[C@@H](c1ccc(C(F)(F)F)cc1CN(Cc1cc(C(F)(F)F)cc(C(F)(F)F)c1)c1nnn(C)n1)N1CCC(C(=O)O)CC1	Cellular tumor antigen p53 (Homo sapiens) (UniProt P04637)	6.68
O=C(c1cc(O)c(O)c([N+](=O)[O-])c1)c1ccccc1F	Cellular tumor antigen p53 (Homo sapiens) (UniProt P04637)	-61.3
C=C1C(=O)O[C@H](CCC)[C@H]1C(=O)O	Cellular tumor antigen p53 (Homo sapiens) (UniProt P04637)	-1.67

Q: Give a short answer stating reported activation for CO[C@@H]1CC[C@H](OC[C@]2(COC(=O)c3ccc(C)[nH]3)[C@H](OC(C)=O)CC[C@@]3(C)[C@@H]4CC=C(C)[C@@H](C5=C(O)C(=O)OC5O)[C@]4(C)CC[C@@H]32)O[C@H]1C (stereo partly drawn) .
A: 0

Q: Recall and state the measured activation for CCc1nn(CCCN2CCN(c3cccc(Cl)c3)CC2)c(=O)n1CCOc1ccccc1 .
A: -3.35

Q: Look up and state reported activation for C=C1CCN([C@H](C)[C@](O)(Cn2cncn2)c2ccc(F)cc2F)CC1
A: -19.1

Q: Item CC(=O)[C@@H]1C[C@H](C(C)(C)O[C@@H]2O[C@H](CO)[C@@H](O)[C@H](O)[C@H]2O)CC[C@@]2(CO)OC(=O)C[C@@H]12 : provide activation
A: -6.11

Q: Tell us which activation value is on record for CC(C)(C)CCN1C[C@@H]2C(CNC(=O)c3cc(Cl)cc(Cl)c3)[C@@H]2C1 (stereo partly drawn)
A: 26.3

Q: Return activation for the following compound: CC/C=C\C(O)C(O)C1=C(C)C(=O)C2(O1)C(=O)NC(OC)(C(=O)c1ccccc1)C2O (stereo not drawn)
A: 0.763

Q: Find the measured activation of Brc1cc2c(cc1[C@H]1Nc3ccccc3[C@H]3C=CC[C@H]31)OCO2 and report it.
A: -5.37

###

Below, each entry is listed with its recorded activation.
- Target Or Test System: Cellular tumor antigen p53 (Homo sapiens) (UniProt P04637)
- Test Method Notes: Primary qHTS for small molecule compounds that upregulate eGFP-tagged delta133p53alpha (in N-terminal) cells. (AID 2060322);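 further: cells pre-induced with doxycycline then dosed without doxycycline; 0% = DMSO vehicle and 100% = reference activator; nearly all actives have a fitted effect of over 75% in size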
- Experimental Setup: NCI-H358 eGFP-delta133p53alpha fluorescence, 24 h; hits give high values
Results filed as inconclusive are left out.
Just the number in %, nothing appended.

Take a look at these entries with their results.
Compound	activation (%)
Cc1ccc2c(c1)c1c(n2CCc2ccc(C)nc2)CCN(C)C1	14.3
COC(=O)CCC1(C)C(C(C)(C)O)C(O)CC2(C)Oc3c(C)c4c(c(OC)c3CC21)C(=O)OC4 (stereo unspecified)	-3.82

Q: Could you please provide reported activation for COc1cc2c(cc1O)CCC1C2CC[C@@]2(C)C1CC[C@@H]2O (stereo partly specified) ? Thanks!
A: 27.6

Q: Find the measured activation of CCOC(=O)C1=C(C)NC(C)=C(C(=O)OC)C1c1cccc([N+](=O)[O-])c1 (stereo unspecified) and report it.
A: -7.72

Q: Fill in activation for record CN(C)c1ccc(C(=C2C=CC(=[N+](C)C)C=C2)c2ccc(N(C)C)cc2)cc1
A: -20.9

Q: Entry COC(=O)C1=CO[C@@H](O[C@@H]2O[C@H](CO)[C@@H](O)[C@H](O)[C@H]2O)[C@@H]2[C@@H](CO)[C@@H](O)C(O)[C@H]12 (stereo partly specified) needs its activation filled in; supply it.
A: -1.79

Q: Report activation, nothing else, for this compound: CC(C)(C)C(=O)Oc1ccc2c(c1)nc(NC(=O)c1cccc([N+](=O)[O-])c1)n2CCCO
A: 12

Q: State, in one line, measured activation of CC(=O)/C=C/C1(O)C(C)(C)CC(O)CC1(C)O (stereo unspecified)
A: 12.2

Q: Give reported activation value for COc1ccc(-c2cc(=O)c3c(O)cc(O[C@@H]4O[C@H](CO[C@@H]5O[C@@H](C)[C@H](O)[C@@H](O)[C@@H]5O)[C@@H](O)[C@H](O)[C@@H]4O)cc3o2)cc1O
A: -19

Q: Give the reported activation for this compound. Cc1cc(N2CCN([C@@H]3CN[C@H](C(=O)N4CCSC4)C3)CC2)n(-c2ccccc2)n1
A: -1.91

Q: Quickly give me recorded activation for CC(C)=CCC(O)[C@](C)(O)C1[C@H](O)C[C@@]2(C)C3CC=C4C(C[C@H](O)[C@@H](O[C@@H]5O[C@H](CO)[C@@H](O)[C@H](O)[C@H]5O)C4(C)C)[C@]3(C)C(=O)C[C@]12C (stereo partly specified)
A: 10.7

Q: Provide only the value of recorded activation for O=C(OCc1cccc(O)c1O[C@@H]1O[C@H](CO)[C@@H](O)[C@H](O)[C@H]1O)C1(O)C(=O)C2C=CC1C1C=CC(=O)C(O)(C(=O)OCc3cccc(O)c3O[C@@H]3O[C@H](CO)[C@@H](O)[C@H](O)[C@H]3O)C21 (stereo partly specified)
A: -29.8

Q: Fill in reported activation for this entry: C[C@@H](O)[C@H](N)C(=O)O
A: -18.4

Q: Let me know recorded activation for C[C@@H](Oc1cc(-n2cnc3ccc(CN4CCN(C)CC4)cc32)sc1C(N)=O)c1ccccc1C(F)(F)F , thanks.
A: 2.47

Q: Give a short answer stating reported activation for CCC(Sc1nnc2c(n1)[nH]c1ccccc12)C(=O)N1c2ccccc2Sc2ccccc21 (stereo unspecified) .
A: 12.3

Q: Assign activation to the following record: COc1cc(-c2cn(C3CCc4c(F)cccc4N(CC(F)(F)F)C3=O)nn2)ccc1-n1cnc(C)c1 (stereo unspecified)
A: 6.68
